Target: hGLP-1R (Homo sapiens, UniProt P43220)
Sequence (P43220 24-463): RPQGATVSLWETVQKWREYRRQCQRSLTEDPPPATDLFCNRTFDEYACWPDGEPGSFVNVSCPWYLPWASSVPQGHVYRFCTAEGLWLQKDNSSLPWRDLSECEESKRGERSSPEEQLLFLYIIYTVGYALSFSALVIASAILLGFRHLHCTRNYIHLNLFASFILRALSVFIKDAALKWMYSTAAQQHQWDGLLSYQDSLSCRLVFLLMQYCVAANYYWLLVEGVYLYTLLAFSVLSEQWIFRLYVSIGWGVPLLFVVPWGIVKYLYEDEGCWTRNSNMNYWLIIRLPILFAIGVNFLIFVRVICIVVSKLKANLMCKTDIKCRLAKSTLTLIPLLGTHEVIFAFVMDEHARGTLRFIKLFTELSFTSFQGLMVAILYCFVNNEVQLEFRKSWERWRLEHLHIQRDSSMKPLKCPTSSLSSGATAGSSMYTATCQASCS
Experiment: cell-based or functional assay
Observable: cAMP Rel EC50, nM (1% HSA) (nM)
Numbers only, in nM.

Some binders with recorded cAMP Rel EC50, nM (1% HSA):
YXQGTFTSDXSQXLDXKAQXAFIEYLIAGGPSSGAPPPSGSEE (non-natural residues; acylated Lys; C-terminal amide; synthetic construct; SITE 2: note = 2-Aminoisobutyric Acid; SITE 10: note = 3-(4-Pyridyl)-L-alanine; SITE 13: note = alpha-methyl-leucine; SITE 16: note = L-ornithine; SITE 17: note = Lysine is chemically modified through conjugation of the epsilon-amino group of the Lysine side chain with (gamma-Gl)) [Example 1035] : 167
YXQGTFTSDFSXXLDKKAQXAFIEYLLEAGPSSXAPPPSGT (acylated lipid side chain; synthetic construct; SITE 2: note = 2-Aminoisobutyric Acid; SITE 12: note = L-ornithine; SITE 13: note = alpha-methyl-leucine; SITE 17: note = Lysine is chemically modified through conjugation of the epsilon-amino group of the Lysine side chain with (2-[2-(2-Amino-ethoxy)-ethoxy]-acetyl)-(gamma-Glu)) [Example 214] : 186

Shift focus to the following entry.
Incoming: What cAMP Rel EC50, nM (1% HSA) value was documented for this binder, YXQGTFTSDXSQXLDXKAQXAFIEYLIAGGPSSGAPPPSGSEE (Aib, 4Pal, Me4Pal, Orn, alpha-methyl-Leu, lipidated Lys, amide; synthetic construct; SITE 2: note = 2-Aminoisobutyric Acid; SITE 10: note = 3-(4-Pyridyl)-L-alanine; SITE 13: note = alpha-methyl-leucine; SITE 16: note = L-ornithine; SITE 17: note = Lysine is chemically modified through conjugation of the epsilon-amino group of the Lysine side chain with (Glu)2-(g)) [Example 1033] ?
Outgoing: 221

Origin of the recorded values: patent US20240270821A1
